All values here come from patent US20230012273A1.

Biological target: T1, full-length human SIRPβL H→D on Expi-CHO cells (human, UniProt Q5TFQ8 30-398)
T1 construct: the entry already carries the change (PDHV to PDDV); also called βL WT H→D
T1 sequence (Q5TFQ8 30-398 H130D): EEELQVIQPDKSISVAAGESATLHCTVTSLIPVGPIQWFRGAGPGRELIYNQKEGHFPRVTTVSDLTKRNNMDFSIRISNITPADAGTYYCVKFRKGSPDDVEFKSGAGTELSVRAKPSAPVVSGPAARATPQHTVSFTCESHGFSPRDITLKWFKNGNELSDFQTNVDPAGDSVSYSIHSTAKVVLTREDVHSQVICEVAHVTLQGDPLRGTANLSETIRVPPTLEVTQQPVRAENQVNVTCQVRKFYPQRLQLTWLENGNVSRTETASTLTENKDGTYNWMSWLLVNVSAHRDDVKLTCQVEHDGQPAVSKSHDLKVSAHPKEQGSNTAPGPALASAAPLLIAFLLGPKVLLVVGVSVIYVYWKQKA
Experiment: flow cytometry, Expi-CHO cells
Observed property: EC50 (nM)
Use nM as the unit, but write only the number.

Tell me measured EC50 for Antibody A4 (antibody, human IgG1, kappa, L234A L235A, V domains shown) VH: EVQLVESGGGLVQPGGSLRLSCAASGFTLSSYDMHWVRQAPGKGLEWVSAIGTAGDTYYTGSVKGRFTISRENAKNSLYLQMNSLRAADTAVYYCVRGGVWDDAFDIWGQGTMVTVSS VL: DIQMTQSPSSLSASVGDRVTITCRASQGINNYAAWFQQKPGKAPKSLIYTASSLHSGVPSKFSGSGSGTDFTLTISSLQPEDFATYYCQQYVSYPYTFGQGTKLEIKR please. 0.5
